// reported IC50 per item
tgt: Cytochrome P450 3A4 (Homo sapiens)
Sequence (P08684 whole entry): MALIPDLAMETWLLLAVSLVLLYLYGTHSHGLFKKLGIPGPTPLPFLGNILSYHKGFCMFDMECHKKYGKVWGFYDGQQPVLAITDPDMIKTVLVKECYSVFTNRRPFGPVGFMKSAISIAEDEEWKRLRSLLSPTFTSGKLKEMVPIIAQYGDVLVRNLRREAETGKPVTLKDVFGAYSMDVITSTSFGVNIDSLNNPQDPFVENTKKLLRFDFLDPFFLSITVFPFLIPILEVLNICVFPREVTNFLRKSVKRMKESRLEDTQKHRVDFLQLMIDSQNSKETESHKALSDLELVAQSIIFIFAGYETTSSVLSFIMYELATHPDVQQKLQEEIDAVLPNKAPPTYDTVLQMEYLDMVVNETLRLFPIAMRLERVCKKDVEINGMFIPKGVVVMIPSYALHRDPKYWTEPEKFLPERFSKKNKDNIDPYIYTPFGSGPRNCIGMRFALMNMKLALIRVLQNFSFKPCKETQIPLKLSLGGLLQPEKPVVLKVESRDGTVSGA
assay_procedure: Inhibition of recombinant human CYP3A4 expressed in baculovirus infected insect cell microsomes using vivid DBOMF as substrate preincubated for 10 mins followed by substrate addition and measured after 25 mins in presence of […] by fluorescence assay
Assay type: ADME
Numbers only here, please. The scale is µM.

O=C(Nc1ccc(SC(F)(F)F)c(Cl)c1)c1ccc(CN2CCCCC2)cc1    15.1

Here's the next entry for you.
Query (compound): CC(c1ccc(C(=O)N2CCc3cc(C(C)(C)C)ccc32)cc1)N1CCCCC1 (centres undefined) ; field requested: IC50
24

---

assay_procedure: Selectivity index, ratio of CC50 for human A549 cells to EC50 for HIV/EBOV-GP infected in human A549 cells
Assay type: toxicity, cell-based
condition_parameters: read-out: Ratio CC50/EC50
property_label: selectivity ratio

Query (compound): CC(c1ccc(C(=O)N2CCc3ccc(C(F)(F)F)cc32)cc1)N1CCCCC1 (stereo not given) ; field requested: selectivity ratio
21

Query (compound): O=C(Nc1ccc(SC(F)(F)F)c(Cl)c1)c1ccc(CN2CCCCC2)cc1 ; field requested: selectivity ratio
5
